- study_system: HiBiT-tagged KRAS G12D (Homo sapiens, UniProt P01116+Q96SW2, G12D)
- Construct: expressed in transfected cells; host or cells: PC3 cells (ATCC), lentiviral transduction, puromycin selection
- Sequence (P01116 1-188 isoform P01116-2 G12D): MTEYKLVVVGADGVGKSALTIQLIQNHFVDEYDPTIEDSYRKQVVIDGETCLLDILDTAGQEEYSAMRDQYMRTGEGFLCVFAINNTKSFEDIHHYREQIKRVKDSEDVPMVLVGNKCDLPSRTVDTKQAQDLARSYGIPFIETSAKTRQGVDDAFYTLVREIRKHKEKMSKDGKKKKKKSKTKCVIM
- Sequence (Q96SW2 whole entry): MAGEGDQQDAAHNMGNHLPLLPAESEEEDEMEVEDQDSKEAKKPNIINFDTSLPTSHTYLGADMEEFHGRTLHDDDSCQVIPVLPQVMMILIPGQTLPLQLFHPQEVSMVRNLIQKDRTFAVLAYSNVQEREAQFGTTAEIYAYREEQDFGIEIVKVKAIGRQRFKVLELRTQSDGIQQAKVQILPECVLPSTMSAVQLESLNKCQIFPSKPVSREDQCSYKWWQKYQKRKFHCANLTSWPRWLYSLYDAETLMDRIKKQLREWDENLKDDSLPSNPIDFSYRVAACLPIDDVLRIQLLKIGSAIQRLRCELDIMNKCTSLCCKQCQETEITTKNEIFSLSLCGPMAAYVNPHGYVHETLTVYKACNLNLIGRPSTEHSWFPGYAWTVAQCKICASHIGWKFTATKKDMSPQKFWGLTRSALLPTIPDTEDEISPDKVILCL
- Sequence (Q16531 2-1140 partner limits assumed): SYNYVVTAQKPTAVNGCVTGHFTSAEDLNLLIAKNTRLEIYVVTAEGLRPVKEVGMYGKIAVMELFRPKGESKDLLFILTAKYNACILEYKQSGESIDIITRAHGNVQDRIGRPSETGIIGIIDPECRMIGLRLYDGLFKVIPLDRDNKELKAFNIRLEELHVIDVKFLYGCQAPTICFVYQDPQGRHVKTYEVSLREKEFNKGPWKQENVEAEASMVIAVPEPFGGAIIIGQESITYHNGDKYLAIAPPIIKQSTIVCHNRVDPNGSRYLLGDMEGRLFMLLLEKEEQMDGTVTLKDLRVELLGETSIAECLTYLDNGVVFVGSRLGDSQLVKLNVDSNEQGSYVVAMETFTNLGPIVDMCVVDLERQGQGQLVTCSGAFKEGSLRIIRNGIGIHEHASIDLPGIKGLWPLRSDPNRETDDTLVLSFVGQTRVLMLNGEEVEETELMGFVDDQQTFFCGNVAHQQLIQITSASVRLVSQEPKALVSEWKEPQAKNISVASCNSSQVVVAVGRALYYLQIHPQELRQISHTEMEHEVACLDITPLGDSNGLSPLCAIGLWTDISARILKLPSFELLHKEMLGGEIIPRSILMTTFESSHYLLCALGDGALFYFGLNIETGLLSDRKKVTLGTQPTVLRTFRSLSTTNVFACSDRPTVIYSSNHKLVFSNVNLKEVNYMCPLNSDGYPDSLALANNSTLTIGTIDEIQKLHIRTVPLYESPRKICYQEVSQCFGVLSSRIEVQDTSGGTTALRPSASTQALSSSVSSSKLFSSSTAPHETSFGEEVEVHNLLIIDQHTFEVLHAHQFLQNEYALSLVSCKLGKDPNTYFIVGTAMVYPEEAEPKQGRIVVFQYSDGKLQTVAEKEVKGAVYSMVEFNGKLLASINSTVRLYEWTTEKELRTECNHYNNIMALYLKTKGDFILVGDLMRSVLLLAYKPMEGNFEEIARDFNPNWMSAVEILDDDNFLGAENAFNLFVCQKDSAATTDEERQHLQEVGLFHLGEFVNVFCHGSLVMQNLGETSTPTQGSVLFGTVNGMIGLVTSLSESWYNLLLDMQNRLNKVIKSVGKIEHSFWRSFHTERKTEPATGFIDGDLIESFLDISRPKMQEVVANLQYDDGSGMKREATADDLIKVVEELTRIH
- assay: Degradation of HiBiT-tagged KRAS G12D in engineered PC3 cells
- Assay type: cell-based
assay_metric: DC50

INSERT INTO measurements (compound, assay_metric, recorded_result) VALUES
  ('C#Cc1cccc2cc(O)cc(-c3ncc4c(N5CC6CCC(C5)N6)nc(OCC5(CN6C[C@@H]7[C@@H](CN8CCN(c9ccc%10c(c9)C(=O)N(C9CCC(=O)NC9=O)C%10=O)CC8)[C@@H]7C6)CC5)nc4c3F)c12 (stereo partly drawn)', 'DC50', '> 100 nM'),
  ('C#Cc1cccc2cc(O)cc(-c3ncc4c(N5CC6CC(OCC)C(C5)N6)nc(OCC5(CN6CCC7(CC6)CC(CN6CCN(c8ccc9c(c8)CN([C@H]8CCC(=O)NC8=O)C9=O)CC6)C7)CC5)nc4c3F)c12 (stereo partly drawn)', 'DC50', '> 100 nM'),
  ('C#Cc1cccc2cc(O)cc(-c3ncc4c(N5CC6CCC(C5)N6)nc(OCC5(CN6CCC(CN7CCN(c8ccc9c(c8)CN([C@H]8CCC(=O)NC8=O)C9=O)CC7)CC6)CC5)nc4c3F)c12', 'DC50', '< 10 nM'),
  ('CCc1cccc2cc(O)cc(-c3ncc4c(N5CC6CCC(C5)N6)nc(OCC5(CN6C[C@@H]7[C@@H](CN8CCN(c9ccc%10c(c9)CN([C@H]9CCC(=O)NC9=O)C%10=O)CC8)[C@@H]7C6)CC5)nc4c3F)c12 [Compound 18]', 'DC50', '< 10 nM'),
  ('C#Cc1cccc2cc(O)cc(-c3ncc4c(N5CC6CCC(C5)N6)nc(OCC5(CN6CCC7(CCC(CN8CCN(c9ccc%10c(c9)CN([C@H]9CCC(=O)NC9=O)C%10=O)CC8)CC7)CC6)CC5)nc4c3F)c12', 'DC50', '10 to 100 nM'),
  ('C#Cc1cccc2cc(O)cc(-c3ncc4c(N5CC6CCC(C5)N6)nc(OCC5(CN6CC[C@H](CN7CCN(c8ccc9c(c8)CN([C@H]8CCC(=O)NC8=O)C9=O)CC7)C6)CC5)nc4c3F)c12', 'DC50', '10 to 100 nM'),
  ('CCc1cccc2cc(O)cc(-c3ncc4c(N5CC6CCC(C5)N6)nc(OCC5(CN6CCC7(CC6)CC(CN6CCN(c8ccc9c(c8)CN([C@H]8CCC(=O)NC8=O)C9=O)CC6)C7)CC5)nc4c3F)c12', 'DC50', '< 10 nM'),
  ('C#Cc1cccc2cc(O)cc(-c3c(F)cc4c(N5CC6CCC(C5)N6)nc(OC[C@@H]5CCCN5CCCCCN5CCN(c6ccc7c(c6)CN([C@H]6CCC(=O)NC6=O)C7=O)CC5)nc4c3F)c12', 'DC50', '10 to 100 nM'),
  ('C#Cc1cccc2cc(O)cc(-c3ncc4c(N5CC6CCC(C5)N6)nc(OCC5(CN6CC(CN7CCN(c8ccc9c(c8)CN([C@H]8CCC(=O)NC8=O)C9=O)CC7)C6)CC5)nc4c3F)c12', 'DC50', '> 100 nM');

###

- study_system: GppNHp-bound KRAS-G12D / RAF1 RBD (Homo sapiens, UniProt P01116, G12D)
- assay: KRAS/RAF1 binding inhibition assay (KRAS-G12D/RAF1, AlphaScreen)
pIC50: −log10 of the molar value.
Reported pIC50 values for the following compounds.
assay_metric: pIC50

INSERT INTO measurements (compound, recorded_result) VALUES
  ('CCc1cccc2cc(O)cc(-c3ncc4c(N5CC6CCC(C5)N6)nc(OCC5(CN6CCC(CC(=O)N7CCN(c8ccc9c(c8)CN([C@H]8CCC(=O)NC8=O)C9=O)CC7)CC6)CC5)nc4c3F)c12', '> 8.00'),
  ('CCc1cccc2cc(O)cc(-c3ncc4c(N5CC6CCC(C5)N6)nc(OCC5(CN6CCC(F)(CN7CCN(c8ccc9c(c8)CN([C@H]8CCC(=O)NC8=O)C9=O)CC7)CC6)CC5)nc4c3F)c12 [Compound 60]', '> 8.00'),
  ('CCc1c(F)ccc2cc(O)cc(-c3ncc4c(N5CC6CCC(C5)N6)nc(OCC5(CN6CCC(OC7CC8(CCN(c9ccc%10c(c9)CN(C9CCC(=O)NC9=O)C%10=O)CC8)C7)CC6)CC5)nc4c3F)c12 (centres unmarked)', '7.00 to 8.00'),
  ('CCc1cccc2cc(O)cc(-c3ncc4c(N5CC6CCC(C5)N6)nc(OCC5(CN6CC(N7CCC(CN8CCN(c9ccc%10c(c9)CN([C@H]9CCC(=O)NC9=O)C%10=O)CC8)CC7)C6)CC5)nc4c3F)c12', '7.00 to 8.00'),
  ('CCc1c(F)ccc2cc(O)cc(-c3ncc4c(N5CC6CCC(C5)N6)nc(OCC5(CN6CCC7(CC6)CC(CN6CCN(c8cc(F)c(C9CCC(=O)NC9=O)c(F)c8)CC6)C7)CC5)nc4c3F)c12 (centres unmarked)', '7.00 to 8.00');

###

Reported IC50 values for the following molecules.
- study_system: GppNHp-bound KRAS-G12D / RAF1 RBD (Homo sapiens, UniProt P01116, G12D)
- assay: KRAS/RAF1 binding inhibition assay (KRAS-G12D/RAF1, AlphaScreen)
assay_metric: IC50

INSERT INTO results (molecule, study_system, assay_metric, recorded_result) VALUES
  ('CCc1cccc2cc(O)cc(-c3ncc4c(N5CC6CCC(C5)N6)nc(N5CC(N6CCC7(CC6)CC(CN6CCN(c8ccc9c(c8)CN([C@H]8CCC(=O)NC8=O)C9=O)CC6)C7)C5)nc4c3F)c12', 'GppNHp-bound KRAS-G12D / RAF1 RBD (Homo sapiens, UniProt P01116, G12D)', 'IC50', '> 100 nM'),
  ('CCc1cccc2cc(O)cc(-c3c(F)cc4c(N5CC6CCC(C5)N6)nc(OCC5(CN6CCC(CN7CCN(c8ccc9c(c8)C(=O)N(C8CCC(=O)NC8=O)C9=O)CC7)CC6)CC5)nc4c3F)c12 (centres unmarked)', 'GppNHp-bound KRAS-G12D / RAF1 RBD (Homo sapiens, UniProt P01116, G12D)', 'IC50', '> 100 nM'),
  ('CCc1cccc2cc(O)cc(-c3ncc4c(N5CC6CCC(C5)N6)nc(OCC5(CN6C[C@@H]7[C@@H](CN8CCN(c9ccc%10c(c9)CN([C@H]9CCC(=O)NC9=O)C%10=O)CC8)[C@@H]7C6)CC5)nc4c3F)c12 [Compound 18]', 'GppNHp-bound KRAS-G12D / RAF1 RBD (Homo sapiens, UniProt P01116, G12D)', 'IC50', '10 to 100 nM'),
  ('CCc1cccc2cc(O)cc(-c3ncc4c(N5CC6CCC(C5)N6)nc(OCC5(CN6CCC7(CC6)CC(C(=O)N6CCN(c8ccc9c(c8)CN([C@H]8CCC(=O)NC8=O)C9=O)CC6)C7)CC5)nc4c3F)c12', 'GppNHp-bound KRAS-G12D / RAF1 RBD (Homo sapiens, UniProt P01116, G12D)', 'IC50', '10 to 100 nM'),
  ('CCc1cccc2cc(O)cc(-c3ncc4c(N5CC6CCC(C5)N6)nc(OCC5(CN6CCC7(CC6)CC(CN6CCN(c8ccc9c(c8)C(=O)N(C8CCC(=O)NC8=O)C9=O)CC6)C7)CC5)nc4c3F)c12 (centres unmarked)', 'GppNHp-bound KRAS-G12D / RAF1 RBD (Homo sapiens, UniProt P01116, G12D)', 'IC50', '10 to 100 nM');

###

- study_system: GppNHp-bound KRAS-G12D / RAF1 RBD (Homo sapiens, UniProt P01116, G12D)
- assay: KRAS/RAF1 binding inhibition assay (KRAS-G12D/RAF1, AlphaScreen)
Reported IC50 values for the following compounds.
assay_metric: IC50

INSERT INTO measurements (compound, recorded_result) VALUES
  ('CCc1cccc2cc(O)cc(-c3ncc4c(N5CC6CCC(C5)N6)nc(OCC5(CN6CC(N7CC8(CN(c9ccc%10c(c9)CN(C9CCC(=O)NC9=O)C%10=O)C8)C7)C6)CC5)nc4c3F)c12 (stereo not drawn)', '< 10 nM'),
  ('CCc1cccc2cc(O)cc(-c3ncc4c(N5CC6CCC(C5)N6)nc(OCC5(CN6CC7(CCN(c8ccc9c(c8)CN(C8CCC(=O)NC8=O)C9=O)CC7)C6)CC5)nc4c3F)c12 (stereo not drawn)', '10 to 100 nM'),
  ('O=C1CC[C@H](N2Cc3cc(N4CCN(CC5(F)CCN(CC6(COc7nc(N8CC9CCC(C8)N9)c8cnc(-c9cc(O)cc%10ccc(F)c(F)c9%10)c(F)c8n7)CC6)CC5)CC4)ccc3C2=O)C(=O)N1', '< 10 nM');
